Item-by-item account of TGI
# Tested on: RPMI-8226 leukemia
# PROTOCOL SUMMARY: NCI tumour cell line growth inhibition, 48 h

{"MOLECULE": "Cc1ccc2c(C3C(C#N)=C(N)Oc4cc5ccccc5cc43)cc(=O)oc2c1 (configuration not stated)", "VALUE TYPE": "TGI", "ENDPOINT VALUE": "30.2 µM"}
{"MOLECULE": "COC(=O)c1ccc2c(c1)/C(=C\\c1cc(Br)c(O)c(Br)c1)C(=O)N2", "VALUE TYPE": "TGI", "ENDPOINT VALUE": "> 25 µM"}
{"MOLECULE": "BrCc1cccc(C[P+](c2ccccc2)(c2ccccc2)c2ccccc2)c1", "VALUE TYPE": "TGI", "ENDPOINT VALUE": "22.7 µM"}

Data point: COC(=O)C1=C(O)c2ccc(Cl)cc2S(=O)(=O)N1C ; TGI = > 100 µM

Data point: C=CCN(C(=O)CNC(=O)C(F)(F)F)c1cc(OCc2ccccc2)c2c(c1)c(C)cn2S(=O)(=O)c1ccccc1 ; TGI = > 100 µM

Data point: CCC(=O)O[C@H]1CC[C@H]2[C@@H]3CCC4=C/C(=N/OC(=O)c5cccc6cc7ccccc7nc56)CC[C@]4(C)[C@H]3CC[C@]12C ; TGI = > 100 µM

Data point: CC1OC(OC2C(OC(=O)[C@]34CCC(C)(C)C[C@H]3C3=CC[C@@H]5[C@@]6(C)CC[C@H](OC7OC(CO)C(O)C(O)C7OC7OC(CO)C(O)C(O)C7O)C(C)(C)[C@@H]6CC[C@@]5(C)[C@]3(C)CC4)OCC(O)C2O)C(O)C(OC2OCC(O)C(O)C2O)C1OC1OCC(O)C(OC2OCC(O)C(O)C2O)C1O (some centres not stated) ; TGI = 24 µM

---

# System: SR leukemia
# PROTOCOL SUMMARY: NCI tumour cell line growth inhibition, 48 h
Where a SMILES comes first, the peptide text is derived from it. The star is where a group is joined. Cbz = O=C(OCc1ccccc1)*
VALUE TYPE: TGI

# annotated cases, reported TGI shown
{"COMPOUND": "CCN(Cc1ccc(F)cc1)c1ccc(CO)c(Br)c1", "VALUE TYPE": "TGI", "ENDPOINT VALUE": "46.4 µM"}
{"COMPOUND": "CC(NC(=O)C(NC(=O)OCc1ccccc1)C(C)C)C(=O)NCC(=O)O (stereo not drawn) (Cbz-Val-Ala-Gly-OH; configuration not given here)", "VALUE TYPE": "TGI", "ENDPOINT VALUE": "> 100 µM"}
{"COMPOUND": "COc1ccc(-c2cc3ccccc3oc2=O)cc1OC", "VALUE TYPE": "TGI", "ENDPOINT VALUE": "> 100 µM"}
{"COMPOUND": "CC1OC(OC2C(OC(=O)[C@]34CCC(C)(C)C[C@H]3C3=CC[C@@H]5[C@@]6(C)CC[C@H](OC7OC(CO)C(O)C(O)C7OC7OC(CO)C(O)C(O)C7O)C(C)(C)[C@@H]6CC[C@@]5(C)[C@]3(C)CC4)OCC(O)C2O)C(O)C(OC2OCC(O)C(O)C2O)C1OC1OCC(O)C(OC2OCC(O)C(O)C2O)C1O (some centres not stated)", "VALUE TYPE": "TGI", "ENDPOINT VALUE": "16.2 µM"}
{"COMPOUND": "NCCCn1c2c(c3ccc([N+](=O)[O-])cc3c1=O)C(=O)c1ccccc1-2", "VALUE TYPE": "TGI", "ENDPOINT VALUE": "> 50 µM"}

The observed TGI for O=c1c2ncn(C3CCCO3)c2n(-c2ccccc2)c(=S)n1-c1ccccc1 (configuration not stated) when tested with SR leukemia stands at > 100 µM

The observed TGI for CCOC(=O)c1sc2c(c1OC(=O)c1ccc(OC)cc1)c(=O)n(-c1ccccc1)c(=S)n2-c1ccccc1 when tested with SR leukemia stands at 93.2 µM
